Attribution: the supplement of paper PMC9112550

Tested on: Escherichia coli TOP10
assay notes: shrunken log2 fold change of peptide-encoding DNA abundance (4.5 h post-induction vs induction); higher = less antimicrobial activity (less host growth inhibition)
condition set: time post-induction: 4.5 h; library: site-saturation at positions 5, 18, 19, 20
Answer label 0 if shrunken log2 fold change is under 0.009, and label 1 if it is 0.009 or more.

Solved cases below.
• RRIRNRPPRLPRPRPRPLYWPRP = label 0
• RRIRVRPPRLPRPRPRPATFPRP = label 0
• RRIRGRPPRLPRPRPRPNDGPRP = label 1
• RRIRCRPPRLPRPRPRPPQFPRP = label 1
• RRIRCRPPRLPRPRPRPNMFPRP = label 0
• RRIRFRPPRLPRPRPRPHDKPRP = label 0
• RRIRPRPPRLPRPRPRPADGPRP = label 1
• RRIRSRPPRLPRPRPRPHYEPRP = label 0

Could you tell me if the measured shrunken log2 fold change of `RRIRGRPPRLPRPRPRPTMQPRP` reaches 0.009 or more? label 1

Do the same for `RRIRNRPPRLPRPRPRPGFGPRP` please label 1

Do the same for `RRIRDRPPRLPRPRPRPYIHPRP` please label 0

Do the same for `RRIRTRPPRLPRPRPRPAYVPRP` please label 0

---

System: Escherichia coli TOP10
assay notes: shrunken log2 fold change of peptide-encoding DNA abundance (4.5 h post-induction vs induction); higher = less antimicrobial activity (less host growth inhibition)
condition set: time post-induction: 4.5 h; library: site-saturation at positions 5, 18, 19, 20
Answer n if shrunken log2 fold change is under 0.1, and y if it is 0.1 or more.

Solved cases below.
• RRIRCRPPRLPRPRPRPGPQPRP = y
• RRIRPRPPRLPRPRPRPSLTPRP = n
• RRIRIRPPRLPRPRPRPEFRPRP = y

Could you tell me if the measured shrunken log2 fold change of `RRIRKRPPRLPRPRPRPAKYPRP` reaches 0.1 or more? n

Do the same for `RRIRQRPPRLPRPRPRPAQAPRP` please n

---

Test system: Escherichia coli TOP10
assay notes: shrunken log2 fold change of peptide-encoding DNA abundance (4.5 h post-induction vs induction); higher = less antimicrobial activity (less host growth inhibition)
condition set: time post-induction: 4.5 h; library: site-saturation at positions 5, 18, 19, 20
assay metric: shrunken log2 fold change

* RRIRARPPRLPRPRPRPEGCPRP | 1.31
* RRIRPRPPRLPRPRPRPTWVPRP | 0.0694
* RRIRIRPPRLPRPRPRPYDVPRP | -0.101
* RRIRNRPPRLPRPRPRPHCCPRP | -0.215
* RRIRPRPPRLPRPRPRPTAKPRP | 0.152

Bench note: what shrunken log2 fold change did `RRIRKRPPRLPRPRPRPTMSPRP` show? 0.22

Do the same for `RRIRERPPRLPRPRPRPETNPRP` please -0.000368

Do the same for `RRIRTRPPRLPRPRPRPTTEPRP` please -0.16

---

Test system: Escherichia coli TOP10
assay notes: shrunken log2 fold change of peptide-encoding DNA abundance (4.5 h post-induction vs induction); higher = less antimicrobial activity (less host growth inhibition)
condition set: time post-induction: 4.5 h; library: site-saturation at positions 5, 18, 19, 20
Recorded shrunken log2 fold change values for a group of sequences are listed next.
// response body must contain only the number

Past entries and their recorded results:
* RRIRNRPPRLPRPRPRPEATPRP | 0.556
* RRIRQRPPRLPRPRPRPTHCPRP | 0.897
* RRIRERPPRLPRPRPRPYVYPRP | -0.296
* RRIRIRPPRLPRPRPRPQVKPRP | -0.405
* RRIRNRPPRLPRPRPRPRMDPRP | -0.104

Let us examine a further case.
Bench note: what shrunken log2 fold change did `RRIRIRPPRLPRPRPRPHSHPRP` show? -0.912

---

Test system: Escherichia coli TOP10
assay notes: shrunken log2 fold change of peptide-encoding DNA abundance (4.5 h post-induction vs induction); higher = less antimicrobial activity (less host growth inhibition)
condition set: time post-induction: 4.5 h; library: site-saturation at positions 5, 18, 19, 20
assay metric: shrunken log2 fold change
// response body must contain only the number

Past entries and their recorded results:
• RRIRHRPPRLPRPRPRPGTCPRP = -0.318
• RRIRWRPPRLPRPRPRPAWLPRP = 0.61
• RRIRNRPPRLPRPRPRPTCKPRP = -0.0431
• RRIRMRPPRLPRPRPRPVKKPRP = 0.0481
• RRIRMRPPRLPRPRPRPYVKPRP = -0.209

Please state recorded shrunken log2 fold change (tested on Escherichia coli TOP10) of `RRIRRRPPRLPRPRPRPANQPRP` 0.0564

Do the same for `RRIRARPPRLPRPRPRPFPWPRP` please 0.477

Do the same for `RRIRCRPPRLPRPRPRPSHAPRP` please -0.375

Do the same for `RRIRNRPPRLPRPRPRPSRQPRP` please 0.0744

Do the same for `RRIRTRPPRLPRPRPRPESFPRP` please -0.47

Do the same for `RRIRGRPPRLPRPRPRPECAPRP` please 2.14

Do the same for `RRIRHRPPRLPRPRPRPVIDPRP` please -0.395

Do the same for `RRIRNRPPRLPRPRPRPDKYPRP` please -0.665

Do the same for `RRIRERPPRLPRPRPRPSEKPRP` please -0.0759

Do the same for `RRIRGRPPRLPRPRPRPWDGPRP` please 0.486

Do the same for `RRIRIRPPRLPRPRPRPDYWPRP` please -0.195

Do the same for `RRIRTRPPRLPRPRPRPQSVPRP` please -0.104

Do the same for `RRIRPRPPRLPRPRPRPMPWPRP` please 0.215

Do the same for `RRIRPRPPRLPRPRPRPQWIPRP` please 0.0662

Do the same for `RRIRPRPPRLPRPRPRPPHGPRP` please 0.374

---

System: Escherichia coli TOP10
assay notes: shrunken log2 fold change of peptide-encoding DNA abundance (4.5 h post-induction vs induction); higher = less antimicrobial activity (less host growth inhibition)
condition set: time post-induction: 4.5 h; library: site-saturation at positions 5, 18, 19, 20
assay metric: shrunken log2 fold change
// response body must contain only the number

• RRIRGRPPRLPRPRPRPEATPRP = 2.21
• RRIRVRPPRLPRPRPRPSDTPRP = -0.54
• RRIRVRPPRLPRPRPRPWEWPRP = 0.0039
• RRIRFRPPRLPRPRPRPYVGPRP = -0.108
• RRIRDRPPRLPRPRPRPQCHPRP = -0.0594

Bench note: what shrunken log2 fold change did `RRIRIRPPRLPRPRPRPYRQPRP` show? -0.326

Do the same for `RRIRIRPPRLPRPRPRPQLHPRP` please -0.252

Do the same for `RRIRYRPPRLPRPRPRPHDKPRP` please -0.661

---

Recorded shrunken log2 fold change values for a group of sequences are listed next.
System: Escherichia coli TOP10
assay notes: shrunken log2 fold change of peptide-encoding DNA abundance (4.5 h post-induction vs induction); higher = less antimicrobial activity (less host growth inhibition)
condition set: time post-induction: 4.5 h; library: site-saturation at positions 5, 18, 19, 20
// response body must contain only the number

Past entries and their recorded results:
- RRIRWRPPRLPRPRPRPSGNPRP: -0.0162
- RRIRRRPPRLPRPRPRPHEKPRP: 0.0358
- RRIRDRPPRLPRPRPRPFWRPRP: 0.0187

Bench note: what shrunken log2 fold change did `RRIRERPPRLPRPRPRPGCPPRP` show? 0.0137

Do the same for `RRIRIRPPRLPRPRPRPCCWPRP` please 0.0865

Do the same for `RRIRFRPPRLPRPRPRPWSKPRP` please -0.079

Do the same for `RRIRRRPPRLPRPRPRPLCAPRP` please 0.646

Do the same for `RRIRHRPPRLPRPRPRPLIMPRP` please -0.561

Do the same for `RRIRCRPPRLPRPRPRPLYTPRP` please -0.765

Do the same for `RRIRNRPPRLPRPRPRPFCPPRP` please -0.278

Do the same for `RRIRVRPPRLPRPRPRPCHNPRP` please -0.362

Do the same for `RRIRPRPPRLPRPRPRPAARPRP` please 0.727

Do the same for `RRIRYRPPRLPRPRPRPDASPRP` please -0.00663

---

Recorded shrunken log2 fold change values for a group of sequences are listed next.
Test system: Escherichia coli TOP10;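 also: peptides expressed intracellularly from a pBAD plasmid library in pooled LB shake-flask culture, induced with 0.3% L-arabinose, DNA abundance read by NGS, three biological replicates, DESeq2 with apeglm shrinkage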
assay notes: shrunken log2 fold change of peptide-encoding DNA abundance (4.5 h post-induction vs induction); higher = less antimicrobial activity (less host growth inhibition)
condition set: time post-induction: 4.5 h; library: site-saturation at positions 5, 18, 19, 20
// response body must contain only the number

Past entries and their recorded results:
- RRIRMRPPRLPRPRPRPHGHPRP: 0.256
- RRIRLRPPRLPRPRPRPKKFPRP: -0.322
- RRIRARPPRLPRPRPRPSKQPRP: 0.0216
- RRIRFRPPRLPRPRPRPIARPRP: 0.00909
- RRIRPRPPRLPRPRPRPHNAPRP: -0.284
- RRIRARPPRLPRPRPRPIQQPRP: 0.0227
- RRIRKRPPRLPRPRPRPQGSPRP: -0.0103

Let us examine a further case.
Bench note: what shrunken log2 fold change did `RRIRFRPPRLPRPRPRPLPLPRP` show? 0.0222
